Answer each item with its documented Specific binding of [3H]-NIC in the presence of compound.
ASSAY_TARGET: α4β2-containing receptor subtype (Rattus norvegicus, UniProt P09483+P12390)
Construct: Striata from two rats were dissected, pooled, and homogenized; from tissue; host or cells: rat striatal membranes
Sequence (P09483 31-630): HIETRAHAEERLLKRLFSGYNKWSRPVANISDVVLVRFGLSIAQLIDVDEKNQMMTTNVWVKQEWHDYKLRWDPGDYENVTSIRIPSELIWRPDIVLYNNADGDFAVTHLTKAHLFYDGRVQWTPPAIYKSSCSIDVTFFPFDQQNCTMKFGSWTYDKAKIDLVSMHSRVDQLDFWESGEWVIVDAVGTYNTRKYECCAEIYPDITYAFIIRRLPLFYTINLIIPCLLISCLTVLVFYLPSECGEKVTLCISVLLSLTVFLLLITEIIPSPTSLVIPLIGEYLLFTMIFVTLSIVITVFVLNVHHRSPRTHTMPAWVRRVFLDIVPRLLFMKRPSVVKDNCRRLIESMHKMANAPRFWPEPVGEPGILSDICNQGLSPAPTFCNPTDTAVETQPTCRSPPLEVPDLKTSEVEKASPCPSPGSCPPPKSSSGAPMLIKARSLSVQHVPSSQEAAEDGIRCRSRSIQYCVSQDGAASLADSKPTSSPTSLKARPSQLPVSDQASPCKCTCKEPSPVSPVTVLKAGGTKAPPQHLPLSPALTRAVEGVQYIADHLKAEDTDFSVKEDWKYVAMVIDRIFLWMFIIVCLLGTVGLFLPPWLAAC
Sequence (P12390 25-500): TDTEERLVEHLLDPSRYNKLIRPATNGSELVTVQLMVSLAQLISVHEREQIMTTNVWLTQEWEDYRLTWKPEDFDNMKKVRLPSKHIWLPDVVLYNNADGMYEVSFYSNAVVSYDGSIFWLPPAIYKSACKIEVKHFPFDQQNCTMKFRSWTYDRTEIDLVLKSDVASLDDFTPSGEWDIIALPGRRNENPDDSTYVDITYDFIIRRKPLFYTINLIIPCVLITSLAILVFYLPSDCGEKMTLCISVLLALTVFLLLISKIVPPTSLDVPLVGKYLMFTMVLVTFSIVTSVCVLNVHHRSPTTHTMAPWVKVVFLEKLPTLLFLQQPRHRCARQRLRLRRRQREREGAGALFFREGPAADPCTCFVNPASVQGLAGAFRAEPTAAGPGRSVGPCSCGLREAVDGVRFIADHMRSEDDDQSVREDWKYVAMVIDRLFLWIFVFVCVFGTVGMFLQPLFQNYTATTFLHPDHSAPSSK
EXPERIMENTAL_PROTOCOL: [3H]-NIC binding assay, rat striatal membranes
MEASUREMENT_CONDITIONS: compound 100 μM; 3 nM [3H]-NIC; mean ± S.E.M of 3 experiments

Ask: Indicate the recorded Specific binding of [3H]-NIC in the presence of compound value for this molecule: CCCCCCCCCCC[n+]1cccc2c1CCC1CCN(C)C21 (stereo not drawn)
Result: 37.3 ± 1.8 fmol/mg of protein

Ask: Retrieve Specific binding of [3H]-NIC in the presence of compound measured for CCCCCCCC[n+]1cccc2c1CCC1CCN(C)C21 (stereo not drawn) and print it.
Result: 13.5 ± 0.5 fmol/mg of protein

Ask: Identify the reported Specific binding of [3H]-NIC in the presence of compound for the following entry. CCCCCCCCCC[n+]1cccc2c1CCC1CCN(C)C21 (stereo not drawn)
Result: 47.9 ± 2.8 fmol/mg of protein

Ask: Give the measured Specific binding of [3H]-NIC in the presence of compound for CCCCCCCC[n+]1ccc2c(c1)[C@@H]1[C@H](CC2)CCN1C.[I-] (relative stereo)
Result: 30.2 ± 6.9 fmol/mg of protein

Ask: Find the measured Specific binding of [3H]-NIC in the presence of compound of CCCCCCCCC[n+]1cccc2c1CCC1CCN(C)C21 (stereo not drawn) and report it.
Result: 36.2 ± 0.3 fmol/mg of protein

Ask: Determine from records and report Specific binding of [3H]-NIC in the presence of compound for CCCCCCCCCCCC[n+]1cccc2c1CCC1CCN(C)C21 (stereo not drawn)
Result: 34.0 ± 2.1 fmol/mg of protein

----------
ASSAY_TARGET: α7-type neuronal nicotinic acetylcholine receptors (Rattus norvegicus)
Construct: The brain tissue was homogenized with a Tekmar Polytron; from tissue; host or cells: male Sprague-Dawley rat brain membranes (whole brain without cortex, striatum and cerebellum)
Sequence (Q05941 23-502): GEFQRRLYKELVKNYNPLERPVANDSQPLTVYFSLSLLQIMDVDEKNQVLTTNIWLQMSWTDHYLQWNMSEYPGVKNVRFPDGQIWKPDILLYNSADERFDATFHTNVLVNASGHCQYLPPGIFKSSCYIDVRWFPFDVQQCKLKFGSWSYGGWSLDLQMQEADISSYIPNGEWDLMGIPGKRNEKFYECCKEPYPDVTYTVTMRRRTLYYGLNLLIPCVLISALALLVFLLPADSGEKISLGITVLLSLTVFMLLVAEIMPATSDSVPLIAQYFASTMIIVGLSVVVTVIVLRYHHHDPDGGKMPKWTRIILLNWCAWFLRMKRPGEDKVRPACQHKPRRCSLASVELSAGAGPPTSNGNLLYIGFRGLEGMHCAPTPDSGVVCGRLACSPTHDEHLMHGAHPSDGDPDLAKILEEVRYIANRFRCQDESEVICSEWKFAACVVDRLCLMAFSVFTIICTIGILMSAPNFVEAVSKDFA
EXPERIMENTAL_PROTOCOL: [3H]-MLA binding assay, rat brain membranes
MEASUREMENT_CONDITIONS: compound 10 μM; 2.5 nM [3H]-MLA; whole brain binding relative to control
Exercise: for every item that follows, state its recorded remaining activity at 10 µM.
# output: bare number, implied unit %

Ask: Report remaining activity at 10 µM, nothing else, for this compound: CCCCCCCCC[n+]1ccc2c(c1)[C@@H]1[C@H](CC2)CCN1C.[I-] (relative stereo) [ACN]
Result: 101

Ask: Indicate the recorded remaining activity at 10 µM value for this compound: CCCCCCCCCC[n+]1ccc2c(c1)[C@@H]1[C@H](CC2)CCN1C.[I-] (relative stereo) [ACD]
Result: 102

Ask: Give remaining activity at 10 µM for CCCCCCCCC[n+]1cccc2c1CCC1CCN(C)C21 (stereo not shown) [BCN]
Result: 94

Ask: Give a short answer stating reported remaining activity at 10 µM for CCCCCCCCCCCC[n+]1ccc2c(c1)[C@@H]1[C@H](CC2)CCN1C.[I-] (relative stereo) [ACDD] .
Result: 102

Ask: Using known records, supply remaining activity at 10 µM for CCCCCCCCCCCC[n+]1cccc2c1CCC1CCN(C)C21 (stereo not shown) [BCDD]
Result: 94.2

Ask: Report measured remaining activity at 10 µM; entry is CCCCCCCC[n+]1ccc2c(c1)[C@@H]1[C@H](CC2)CCN1C.[I-] (relative stereo) [ACO]
Result: 91.5

Ask: Dear colleague, please send me the reported remaining activity at 10 µM for CCCCCCCCCC[n+]1cccc2c1CCC1CCN(C)C21 (stereo not shown) [BCD] when you can.
Result: 96.2

Ask: Fill in reported remaining activity at 10 µM for this entry: CCCCCCCC[n+]1cccc2c1CCC1CCN(C)C21 (stereo not shown) [BCO]
Result: 93.6

Ask: Indicate the recorded remaining activity at 10 µM value for this compound: CCCCCCCCCCC[n+]1ccc2c(c1)[C@@H]1[C@H](CC2)CCN1C.[I-] (relative stereo) [ACU]
Result: 100

Ask: Dear colleague, please send me the reported remaining activity at 10 µM for CCCCCCCCCCC[n+]1cccc2c1CCC1CCN(C)C21 (stereo not shown) [BCU] when you can.
Result: 92.3

----------
ASSAY_TARGET: α4β2-containing receptor subtype (Rattus norvegicus, UniProt P09483+P12390)
Construct: Striata from two rats were dissected, pooled, and homogenized; from tissue; host or cells: rat striatal membranes
EXPERIMENTAL_PROTOCOL: [3H]-NIC binding assay, rat striatal membranes
MEASUREMENT_CONDITIONS: compound 10 μM; 3 nM [3H]-NIC; mean ± S.E.M of 3 experiments
MEASURED_METRIC: Specific binding of [3H]-NIC in the presence of compound

Ask: Give reported Specific binding of [3H]-NIC in the presence of compound value for CCCCCCCC[n+]1ccc2c(c1)[C@@H]1[C@H](CC2)CCN1C.[I-] (relative stereo)
Result: 42.2 ± 0.5 fmol/mg of protein

Ask: Report measured Specific binding of [3H]-NIC in the presence of compound; entry is CCCCCCCCCC[n+]1cccc2c1CCC1CCN(C)C21 (stereo not shown)
Result: 54.4 ± 1.1 fmol/mg of protein

Ask: Tell me measured Specific binding of [3H]-NIC in the presence of compound for CCCCCCCCCCC[n+]1ccc2c(c1)[C@@H]1[C@H](CC2)CCN1C.[I-] (relative stereo) please.
Result: 49.0 ± 0.3 fmol/mg of protein

Ask: Assign Specific binding of [3H]-NIC in the presence of compound to the following record: CCCCCCCC[n+]1cccc2c1CCC1CCN(C)C21 (stereo not shown)
Result: 39.7 ± 1.4 fmol/mg of protein

Ask: Assign Specific binding of [3H]-NIC in the presence of compound to the following record: CCCCCCCCCC[n+]1ccc2c(c1)[C@@H]1[C@H](CC2)CCN1C.[I-] (relative stereo)
Result: 52.1 ± 2.6 fmol/mg of protein

Ask: For the compound CCCCCCCCC[n+]1cccc2c1CCC1CCN(C)C21 (stereo not shown) , give its reported Specific binding of [3H]-NIC in the presence of compound.
Result: 47.7 ± 2.1 fmol/mg of protein

Ask: Please look at this compound and report its Specific binding of [3H]-NIC in the presence of compound: CCCCCCCCCCCC[n+]1cccc2c1CCC1CCN(C)C21 (stereo not shown)
Result: 43.0 ± 4.7 fmol/mg of protein

Ask: Read off the recorded Specific binding of [3H]-NIC in the presence of compound for CCCCCCCCCCC[n+]1cccc2c1CCC1CCN(C)C21 (stereo not shown)
Result: 53.9 ± 1.2 fmol/mg of protein

Ask: Supply measured Specific binding of [3H]-NIC in the presence of compound of CCCCCCCCCCCC[n+]1ccc2c(c1)[C@@H]1[C@H](CC2)CCN1C.[I-] (relative stereo) in your reply.
Result: 49.8 ± 2.9 fmol/mg of protein

Ask: Query Specific binding of [3H]-NIC in the presence of compound for CCCCCCCCC[n+]1ccc2c(c1)[C@@H]1[C@H](CC2)CCN1C.[I-] (relative stereo)
Result: 48.9 ± 2.9 fmol/mg of protein

----------
ASSAY_TARGET: α4β2-containing receptor subtype (Rattus norvegicus, UniProt P09483+P12390)
Construct: Striata from two rats were dissected, pooled, and homogenized; from tissue; host or cells: rat striatal membranes
EXPERIMENTAL_PROTOCOL: [3H]-NIC binding assay, rat striatal membranes
MEASUREMENT_CONDITIONS: compound 100 μM; 3 nM [3H]-NIC; mean ± S.E.M of 3 experiments
MEASURED_METRIC: Specific binding of [3H]-NIC in the presence of compound

Ask: Enter measured Specific binding of [3H]-NIC in the presence of compound, system α4β2-containing receptor subtype (Rattus norvegicus, UniProt P09483+P12390), for the molecule shown: CCCCCCCCCCC[n+]1ccc2c(c1)[C@@H]1[C@H](CC2)CCN1C.[I-] (relative stereo)
Result: 42.7 ± 2.1 fmol/mg of protein

Ask: Report value: Specific binding of [3H]-NIC in the presence of compound, system: α4β2-containing receptor subtype (Rattus norvegicus, UniProt P09483+P12390), molecule: CCCCCCCCCCCC[n+]1ccc2c(c1)[C@@H]1[C@H](CC2)CCN1C.[I-] (relative stereo)
Result: 44.5 ± 1.7 fmol/mg of protein

Ask: Write Specific binding of [3H]-NIC in the presence of compound of CCCCCCCCCC[n+]1ccc2c(c1)[C@@H]1[C@H](CC2)CCN1C.[I-] (relative stereo) ; system used: α4β2-containing receptor subtype (Rattus norvegicus, UniProt P09483+P12390)
Result: 37.0 ± 1.7 fmol/mg of protein

Ask: Provide Specific binding of [3H]-NIC in the presence of compound, system α4β2-containing receptor subtype (Rattus norvegicus, UniProt P09483+P12390), entry CCCCCCCCC[n+]1ccc2c(c1)[C@@H]1[C@H](CC2)CCN1C.[I-] (relative stereo)
Result: 30.2 ± 2.2 fmol/mg of protein
